# credit: ChEMBL document CHEMBL4613250

assay: Cmax in brown Norway rat retina at 10 mg/kg, po administered as single dose measured after 0.25 to 24 hrs by HPLC-MS/MS analysis; assay type: ADME, organism-based; design: dose 10 mg/kg, route oral
Measured Quantity: Cmax (nM)

INSERT INTO measurements (compound, measured_quantity, experimental_result) VALUES
  ('CCO[C@H]1CCN(Cc2c(OC)cc(C)c3[nH]ccc23)[C@H](c2ccc(C(=O)O)cc2)C1 [IPTACOPAN]', 'Cmax', 150);

----------
We begin with a simple list: items and their reported half-life.
experiment: Half life in C57BL/6 mouse at 1 mg/kg, iv after 5 mins to 7 hrs by HPLC-MS/MS analysis; type: ADME, organism-based; conditions: C57BL/6, mouse, in vivo
Measured Quantity: half-life (h)

INSERT INTO results (compound, experimental_result) VALUES
  ('Cc1cc(C)c2[nH]ccc2c1CN1CCCCC1c1ccc(C(=O)O)cc1 (stereo not given)', 4.9),
  ('CCO[C@H]1CCN(Cc2c(C3CC3)cc(C)c3[nH]ccc23)[C@H](c2ccc(C(=O)O)cc2)C1', 9.6),
  ('COc1cc(C)c2[nH]ccc2c1CN1CC[C@H](OC)C[C@H]1c1ccc(C(=O)O)cc1', 2.4),
  ('CO[C@H]1CCN(Cc2c(C)cc(C)c3[nH]ccc23)[C@H](c2ccc(C(=O)O)cc2)C1', 6.6),
  ('CO[C@H]1CCN(Cc2c(C3CC3)cc(C)c3[nH]ccc23)[C@H](c2ccc(C(=O)O)cc2)C1', 5.6);
